- experimental system: Stb4 (UniProt P50104)
- Sequence (P50104 whole entry): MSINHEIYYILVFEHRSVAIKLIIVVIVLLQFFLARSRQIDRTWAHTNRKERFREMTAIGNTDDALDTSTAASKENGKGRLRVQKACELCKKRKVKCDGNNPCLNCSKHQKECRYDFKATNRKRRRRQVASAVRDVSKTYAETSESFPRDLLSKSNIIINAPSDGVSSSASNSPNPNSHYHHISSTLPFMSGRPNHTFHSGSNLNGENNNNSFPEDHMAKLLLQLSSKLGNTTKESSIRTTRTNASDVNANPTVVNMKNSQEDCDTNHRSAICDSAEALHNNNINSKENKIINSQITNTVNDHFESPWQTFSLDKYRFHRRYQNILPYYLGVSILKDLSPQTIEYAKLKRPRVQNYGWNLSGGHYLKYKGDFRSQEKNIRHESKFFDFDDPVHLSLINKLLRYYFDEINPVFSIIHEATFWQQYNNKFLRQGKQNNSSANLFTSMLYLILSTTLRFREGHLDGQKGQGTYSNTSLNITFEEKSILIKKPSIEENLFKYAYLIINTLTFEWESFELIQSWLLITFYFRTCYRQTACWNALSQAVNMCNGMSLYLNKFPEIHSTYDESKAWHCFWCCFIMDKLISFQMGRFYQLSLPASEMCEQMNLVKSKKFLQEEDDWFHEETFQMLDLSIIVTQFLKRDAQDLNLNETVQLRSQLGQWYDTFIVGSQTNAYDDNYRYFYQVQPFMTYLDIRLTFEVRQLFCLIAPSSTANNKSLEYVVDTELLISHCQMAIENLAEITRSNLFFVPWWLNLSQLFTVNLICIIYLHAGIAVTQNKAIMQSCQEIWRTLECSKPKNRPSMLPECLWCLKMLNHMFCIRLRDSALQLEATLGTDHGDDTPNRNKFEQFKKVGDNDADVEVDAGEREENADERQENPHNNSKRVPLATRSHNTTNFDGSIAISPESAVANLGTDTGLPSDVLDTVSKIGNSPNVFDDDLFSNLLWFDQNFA
- assay overview: PBM E-score (8-mer binding enrichment) (E-score (-0.5 to 0.5)); higher = stronger / more preferred TF binding
- condition info: protein concentration: 200 nM; construct: GST-DNA-binding domain
The full ranking holds about 33,000 sequences; the median of “E-score (-0.5 to 0.5)” is about -0.056, and the highest 2% start at about 0.38. Many of the other results were omitted from the sample, so the highest values are more common in it than they were.
Class rule met: PBM E-score at least -0.003. Class rule not met: PBM E-score below -0.003.

Below are worked cases with known answers.
[
  {
    "sequence": "CCCGTCGG",
    "experimental system": "Stb4 (UniProt P50104)",
    "category": "rule met"
  },
  {
    "sequence": "AAATTGTG",
    "experimental system": "Stb4 (UniProt P50104)",
    "category": "rule not met"
  },
  {
    "sequence": "ACTTCCTG",
    "experimental system": "Stb4 (UniProt P50104)",
    "category": "rule not met"
  },
  {
    "sequence": "CCTTCCGA",
    "experimental system": "Stb4 (UniProt P50104)",
    "category": "rule met"
  },
  {
    "sequence": "ATACGAAT",
    "experimental system": "Stb4 (UniProt P50104)",
    "category": "rule not met"
  }
]

Lab note: next sequence to report on.
Request: Entry `AATGTTTG` : is its PBM E-score no less than -0.003?
Result: rule not met

* * *

- experimental system: Stb4 (UniProt P50104)
- assay overview: PBM E-score (8-mer binding enrichment) (E-score (-0.5 to 0.5)); higher = stronger / more preferred TF binding
- condition info: protein concentration: 200 nM; construct: GST-DNA-binding domain
In all, about 33,000 sequences were measured (“E-score (-0.5 to 0.5)”: median about -0.056, highest 2% from about 0.38 on). The entries come from a sample that favours the highest values as a whole.
value type: PBM E-score

Some solved cases for reference:
[
  {
    "sequence": "ATTCAACC",
    "reported result": 0.00448
  },
  {
    "sequence": "ACTGCCCG",
    "reported result": 0.123
  },
  {
    "sequence": "ATAACGCA",
    "reported result": -0.0729
  },
  {
    "sequence": "AGTCACAA",
    "reported result": -0.173
  },
  {
    "sequence": "CCGAATCA",
    "reported result": 0.361
  }
]

Give me PBM E-score for each of these sequences, listed below.
1. TGGAATAA
2. AGGAATTA

Result:
[0.072, 0.0103]

* * *

Can you tell me PBM E-score for the items I'm about to list?
- experimental system: Stb4 (UniProt P50104)
- assay overview: PBM E-score (8-mer binding enrichment) (E-score (-0.5 to 0.5)); higher = stronger / more preferred TF binding
- condition info: protein concentration: 200 nM; construct: GST-DNA-binding domain
In all, about 33,000 sequences were measured (“E-score (-0.5 to 0.5)”: median about -0.056, highest 2% from about 0.38 on). The sample holds the highest values, similar sequences and a random draw of the others, so the mix is not that of the screen.
Answers are plain numbers.

[
  {
    "sequence": "TAATCCTA",
    "PBM E-score": -0.00858
  },
  {
    "sequence": "TAATCCCA",
    "PBM E-score": -0.0875
  }
]

Give me PBM E-score for each of these sequences, listed below.
1. AGTTTTCG
2. ACAGCATC
3. AAATCCGG
4. CAATCCGA
5. CAATCCGG
6. ACGGGTAA
7. AAATCCGT
8. CACCCTCG

Result:
1: 0.152; 2: -0.102; 3: 0.332; 4: 0.403; 5: 0.244; 6: 0.328; 7: 0.186; 8: 0.0812

Request: # return recorded PBM E-score for entry `AAATCCGA`
Result: 0.396
